Listing: inhibition at 100 µM of selected compounds
EXPERIMENTAL_SYSTEM: Cyclophilin A (CypA) (Homo sapiens (Human), UniProt P62937)
Sequence (P62937 whole entry): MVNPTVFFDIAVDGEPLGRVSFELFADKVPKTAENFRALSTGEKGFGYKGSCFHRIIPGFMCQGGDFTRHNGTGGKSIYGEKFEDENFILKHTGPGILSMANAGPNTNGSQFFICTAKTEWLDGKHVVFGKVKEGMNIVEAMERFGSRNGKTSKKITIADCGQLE
ASSAY_INFO: Cyclophilin PPIase enzymatic assay (chymotrypsin coupled), CypA
Type: biochemical
EXPERIMENTAL_PARAMETERS: activity test at 100 μM on CypA; read-out: Inhibition (%)
Express your answer in %, writing the number without its unit.

COMPOUND: Nc1ccc(CNC(=O)NCC(=O)N2CCOC(CN3C(=O)c4ccccc4C3=O)C2)cc1 (stereo not drawn)
inhibition at 100 µM, %: 67.2

COMPOUND: CCN(O)C(=O)CNC(=O)NCc1ccc(N)nc1
inhibition at 100 µM, %: 18.9

COMPOUND: CCOC(=O)C1CCCN(C(=O)CNC(=O)NCc2ccc(N)cc2)C1 (stereo not drawn)
inhibition at 100 µM, %: 49.2

COMPOUND: CCOC(=O)CNC(=O)NCc1cccc(N)c1 [Compound F549, ethyl 2-(3-(3-aminobenzyl)ureido)acetate]
inhibition at 100 µM, %: 14.8

COMPOUND: CCOC(=O)C(Cc1cccc(O)c1)NC(=O)NCc1ccc(N)cc1 (stereo not drawn)
inhibition at 100 µM, %: 26.3

COMPOUND: CN(C(=O)CNC(=O)NCc1ccc(N)cc1)c1ccccc1
inhibition at 100 µM, %: 63.4

Which inhibition at 100 µM is listed for Nc1ccc(CNC(=O)NCC(=O)N2CCCC(O)C2)cc1 (stereo not drawn) ?
32.6

Give its inhibition at 100 µM value. Item: Nc1ccc(CNC(=O)NCC(=O)NCCc2ccccc2)cc1
22.5

Field request: inhibition at 100 µM | item: Nc1ccc(CNC(=O)Nc2cnc3sccn3c2=O)cc1
26.3

----------
EXPERIMENTAL_SYSTEM: Cyclophilin B (CypB) (Homo sapiens (Human))
Sequence (P23284 34-216): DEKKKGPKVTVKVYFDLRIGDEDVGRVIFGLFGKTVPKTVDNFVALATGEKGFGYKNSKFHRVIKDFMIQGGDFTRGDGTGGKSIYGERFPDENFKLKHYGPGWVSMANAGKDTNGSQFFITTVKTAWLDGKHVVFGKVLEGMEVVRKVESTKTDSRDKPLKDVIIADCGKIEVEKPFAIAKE
ASSAY_INFO: Cyclophilin PPIase enzymatic assay (chymotrypsin coupled), CypB
Assay type: biochemical
Class Fulfilled: inhibition at 100 µM at least 40%. Class Not fulfilled: inhibition at 100 µM below 40%.

COMPOUND: Nc1ccc(CNC(=O)NCC(=O)N2CCC(O)CC2)cc1
ASSIGNED_CLASS: Not fulfilled
--
COMPOUND: CCOC(=O)CNC(=O)NCc1cccc2c1OCCO2
ASSIGNED_CLASS: Not fulfilled
--
COMPOUND: CCOC(=O)CNC(=O)NCCc1ccc(O)cc1
ASSIGNED_CLASS: Not fulfilled
--
COMPOUND: CCOC(=O)CNC(=O)NCc1cccc(OC)c1
ASSIGNED_CLASS: Not fulfilled
--
COMPOUND: CCOC(=O)CNC(=O)NCc1cc(Cl)cc(Cl)c1
ASSIGNED_CLASS: Not fulfilled

Exam item: decide whether the reported inhibition at 100 µM for CSc1cccc(CN(C(=O)CNC(=O)NCc2ccc(N)nc2)C(C)C)c1 is at least 40%.
Not fulfilled

Hi, just wondering whether CCOC(=O)CNC(=O)NCc1ccc(N)nc1 shows inhibition at 100 µM of 40% or higher.
Fulfilled

Reported inhibition at 100 µM at or above 40%? CCOC(=O)CNC(=O)NCc1ccc(O)cc1O
Not fulfilled

Check the entry Nc1ccc(CNC(=O)NCC(=O)N2CCCC2c2ccccn2)cn1 (centres unmarked) : does inhibition at 100 µM equal or exceed 40%?
Not fulfilled

I'd appreciate it if you could say whether CCOC(=O)CNC(=O)NCCNc1ccccc1 has inhibition at 100 µM at least equal to 40%.
Not fulfilled

Assess whether reported inhibition at 100 µM for Nc1ccc(CNC(=O)Nn2cnc3ccccc3c2=O)cc1 sits at 40% or higher.
Fulfilled

Test whether the compound CCOC(=O)CNC(=O)NCc1cccc(N)c1 [Compound F549, ethyl 2-(3-(3-aminobenzyl)ureido)acetate] records inhibition at 100 µM of 40% or higher.
Fulfilled

Kindly determine if inhibition at 100 µM recorded for Nc1ccc(CNC(=O)NCC(=O)N2CCOC(CN3C(=O)c4ccccc4C3=O)C2)cc1 (centres unmarked) is above or exactly 40%.
Fulfilled

Can CCOC(=O)C(Cc1cccc(O)c1)NC(=O)NCc1ccc(N)cc1 (centres unmarked) be said to have inhibition at 100 µM at or above 40%?
Not fulfilled
